// provenance: paper PMC9596378

Biological target: CypH (Homo sapiens)
Construct: PPIH (UniProtKB Entry O43447: residues 1–177); His6 with TEV site (2BT vector leader) (N); made in house; host or cells: E. coli BL21(DE3)
Experiment: Chymotrypsin coupled prolyl-isomerase assay
Assay type: biochemical
Details: wild-type CypH; read-out: Wild-Type Cyclophilin Prolyl Isomerase Inhibition IC50 Values, CypH

compound: CC12CCCN(C1)C(=O)C=CC(=O)NCCC(C(=O)NCCOCCN)NC(=O)Cc1ccccc1CNC(=O)C(Cc1ccco1)NC2=O (stereo not drawn) [Compound A25]
comparison_operator: =
IC50 [µM]: 24

compound: NCCOCCNC(=O)[C@@H]1CCNC(=O)/C=C/C(=O)N2CCC[C@](Cc3ccccc3)(C2)C(=O)N[C@@H](Cc2ccc(-c3ccc(CC(=O)O)cc3)cc2)C(=O)NCc2ccccc2CC(=O)N1 [Compound B22]
comparison_operator: =
IC50 [µM]: 100

compound: C[N+]1=C(C=CC=CC=C2N(CCCCCC(=O)NCCNC(=O)C3CCNC(=O)C=CC(=O)N4CCCC(Cc5ccccc5)(C4)C(=O)NC(Cc4ccc(-c5ccc(C(CC(=O)O)CC(=O)O)cc5)cc4)C(=O)NCc4ccccc4CC(=O)N3)c3ccccc3C2(C)C)C(C)(C)c2ccccc21 (stereo not drawn) [Compound B53-Cy5]
comparison_operator: >
IC50 [µM]: 2

###

Molecular target: CypE K212A (Homo sapiens, UniProt Q9UNP9, K212A)
Construct: Lane 4- GS-CypE K212A (131-301);; His6 tag with thrombin site (pET28a LIC); GS remnant stays on the N-terminus (N, cleaved yes)
Sequence (Q9UNP9 131-301 K212A): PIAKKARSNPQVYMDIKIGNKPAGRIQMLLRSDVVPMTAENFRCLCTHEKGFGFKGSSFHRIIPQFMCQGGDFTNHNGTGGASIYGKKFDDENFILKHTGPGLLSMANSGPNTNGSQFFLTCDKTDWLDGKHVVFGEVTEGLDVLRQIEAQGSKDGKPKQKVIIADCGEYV
Assay: Competition anisotropy binding assay with A26-Fl
Conditions: FP competition with 0.5 nM A26-Fl, 24 h
pKi: −log10 of the molar value.

molecule: NC(=O)C1CCNC(=O)C=CC(=O)N2CCCC(Cc3ccccc3)(C2)C(=O)NC(Cc2ccc(-c3ccc(C=O)c(B(O)O)c3)cc2)C(=O)NCc2ccccc2CC(=O)N1 (stereo not shown)
tested_system: CypE K212A (Homo sapiens, UniProt Q9UNP9, K212A)
pKi: 7.01

###

Molecular target: CypE (Homo sapiens)
Sequence (Q9UNP9 131-301): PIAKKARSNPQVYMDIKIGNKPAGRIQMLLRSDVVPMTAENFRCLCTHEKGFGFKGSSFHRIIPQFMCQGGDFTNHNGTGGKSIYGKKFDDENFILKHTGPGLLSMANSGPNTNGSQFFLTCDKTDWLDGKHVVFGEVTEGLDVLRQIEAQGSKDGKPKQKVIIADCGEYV
reported_endpoint: Ki (µM)

compound: NC(=O)[C@@H]1CCNC(=O)/C=C/C(=O)N2CCC[C@](Cc3ccccc3)(C2)C(=O)N[C@@H](Cc2ccc(-c3cccc(B(O)O)c3)cc2)C(=O)NCc2ccccc2CC(=O)N1 [Compound C6A]
result_value: 7

###

Target: PPIL1 (Homo sapiens)
Construct: PPIL1 (UniProtKB Entry Q9Y3C6: residues 1–166); made in house; host or cells: E. coli BL21(DE3)
Assay: Chymotrypsin coupled prolyl-isomerase assay
Format: biochemical
Conditions: prolyl-isomerase inhibition, 5 nM cyclophilin; read-out: IC50 PPIL1
pIC50: −log10 of the molar value.
reported_endpoint: pIC50

compound: NC(=O)C1CCNC(=O)C=CC(=O)N2CCCC(Cc3ccccc3)(C2)C(=O)NC(Cc2ccc(-c3ccc(C=O)c(B(O)O)c3)cc2)C(=O)NCc2ccccc2CC(=O)N1 (stereo not shown)
reported_endpoint: pIC50
comparison_operator: =
result_value: 6.40

compound: NCCOCCNC(=O)[C@@H]1CCNC(=O)/C=C/C(=O)N2CCC[C@](Cc3ccccc3)(C2)C(=O)N[C@@H](Cc2ccc(-c3ccc(C(CC(=O)O)CC(=O)O)cc3)cc2)C(=O)NCc2ccccc2CC(=O)N1
reported_endpoint: pIC50
comparison_operator: <
result_value: 4.30

compound: NCCOCCNC(=O)[C@@H]1CCNC(=O)/C=C/C(=O)N2CCC[C@](Cc3ccccc3)(C2)C(=O)N[C@@H](Cc2ccc(-c3ccc(CC(C(=O)O)C(=O)O)cc3)cc2)C(=O)NCc2ccccc2CC(=O)N1
reported_endpoint: pIC50
comparison_operator: =
result_value: 5.22

###

Target: CypD K118E/R124A (Homo sapiens, UniProt P30405, K118E/R124A)
Sequence (P30405 45-207 K118E/R124A): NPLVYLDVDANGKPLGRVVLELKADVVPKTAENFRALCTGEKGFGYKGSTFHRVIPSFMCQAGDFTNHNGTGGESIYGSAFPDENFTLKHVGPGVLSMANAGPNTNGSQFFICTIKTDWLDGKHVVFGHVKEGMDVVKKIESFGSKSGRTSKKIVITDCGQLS
Assay: Chymotrypsin coupled prolyl-isomerase assay
Details: prolyl-isomerase inhibition
reported_endpoint: IC50 (nM)

compound: NCCCc1ccc(-c2ccc(C[C@@H]3NC(=O)[C@]4(Cc5ccccc5)CCCN(C4)C(=O)/C=C/C(=O)NCC[C@@H](C(=O)NCCOCCN)NC(=O)Cc4ccccc4CNC3=O)cc2)cc1 [Compound B32]
reported_endpoint: IC50
units_symbol: nM
result_value: 60

###

Target: CypC (Homo sapiens, UniProt P45877)
Construct: PPIC (UniProtKB Entry P45877: residues 24–212); host or cells: E. coli BL21(DE3)
Sequence (P45877 24-212): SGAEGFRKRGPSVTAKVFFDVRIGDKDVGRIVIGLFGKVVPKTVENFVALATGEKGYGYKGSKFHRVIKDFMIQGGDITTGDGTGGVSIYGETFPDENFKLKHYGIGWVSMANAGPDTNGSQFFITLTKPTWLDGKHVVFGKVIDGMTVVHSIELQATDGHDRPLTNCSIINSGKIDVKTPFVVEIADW
Assay: Chymotrypsin coupled prolyl-isomerase assay
Format: biochemical
Settings: wild-type CypC; read-out: Wild-Type Cyclophilin Prolyl Isomerase Inhibition IC50 Values, CypC
In this section, each of the compounds is paired with its reported IC50.
reported_endpoint: IC50 (µM)

smiles_repr: NCCOCCNC(=O)[C@@H]1CCNC(=O)/C=C/C(=O)N2CCC[C@](Cc3ccccc3)(C2)C(=O)N[C@@H](Cc2ccc(-c3ccc(C#CC(=O)O)cc3)cc2)C(=O)NCc2ccccc2CC(=O)N1
reported_endpoint: IC50
result_value: 1.8
--
smiles_repr: NC(=O)[C@@H]1CCNC(=O)/C=C/C(=O)N2CCC[C@](Cc3ccccc3)(C2)C(=O)N[C@@H](Cc2ccc(-c3cccc(B(O)O)c3)cc2)C(=O)NCc2ccccc2CC(=O)N1
reported_endpoint: IC50
result_value: 5
--
smiles_repr: NCCOCCNC(=O)[C@@H]1CCNC(=O)/C=C/C(=O)N2CCC[C@](Cc3ccccc3)(C2)C(=O)N[C@@H](Cc2ccc(-c3ccc(CC(=O)O)cc3)cc2)C(=O)NCc2ccccc2CC(=O)N1
reported_endpoint: IC50
result_value: 14

###

Target: CypA (Homo sapiens)
Construct: PPIA (UniProtKB Entry P62937: residues 1–165); made in house; host or cells: E. coli BL21(DE3)
Assay: Chymotrypsin coupled prolyl-isomerase assay
Type: biochemical
Conditions: prolyl-isomerase inhibition, 5 nM cyclophilin; read-out: IC50 CypA
Entries and their IC50 values follow.

compound: NCCOCCNC(=O)[C@@H]1CCNC(=O)/C=C/C(=O)N2CCC[C@](Cc3ccccc3)(C2)C(=O)N[C@@H](Cc2ccc(-c3ccc(CCC(=O)O)cc3)cc2)C(=O)NCc2ccccc2CC(=O)N1 [Compound B23]
IC50 [µM]: 0.08
//
compound: NCCOCCNC(=O)[C@@H]1CCNC(=O)/C=C/C(=O)N2CCC[C@](Cc3ccccc3)(C2)C(=O)N[C@@H](Cc2ccc(-c3ccc(CC(C(=O)O)C(=O)O)cc3)cc2)C(=O)NCc2ccccc2CC(=O)N1 [Compound B52]
IC50 [µM]: 1.1
//
compound: NCCOCCNC(=O)[C@@H]1CCNC(=O)/C=C/C(=O)N2CCC[C@](Cc3ccccc3)(C2)C(=O)N[C@@H](Cc2ccc(-c3ccc(C#CC(=O)O)cc3)cc2)C(=O)NCc2ccccc2CC(=O)N1 [Compound B25]
IC50 [µM]: 0.037

###

Measured IC50, listed per entry for reference.
Molecular target: CypC (Homo sapiens, UniProt P45877)
Construct: PPIC (UniProtKB Entry P45877: residues 24–212); host or cells: E. coli BL21(DE3)
Assay: Chymotrypsin coupled prolyl-isomerase assay
Type: biochemical
Conditions: wild-type CypC; read-out: Wild-Type Cyclophilin Prolyl Isomerase Inhibition IC50 Values, CypC
reported_endpoint: IC50 (nM)

molecule: C[N+]1=C(C=CC=CC=C2N(CCCCCC(=O)NCCNC(=O)C3CCNC(=O)C=CC(=O)N4CCCC(Cc5ccccc5)(C4)C(=O)NC(Cc4ccc(-c5ccc(C(CC(=O)O)CC(=O)O)cc5)cc4)C(=O)NCc4ccccc4CC(=O)N3)c3ccccc3C2(C)C)C(C)(C)c2ccccc21 (stereo not shown) [Compound B53-Cy5]
reported_endpoint: IC50
comparison_operator: >
result_value: 2000
//
molecule: CC(=O)c1ccc(-c2ccc(C[C@@H]3NC(=O)[C@]4(Cc5ccccc5)CCCN(C4)C(=O)/C=C/C(=O)NCC[C@@H](C(=O)NCCOCCN)NC(=O)Cc4ccccc4CNC3=O)cc2)cc1 [Compound B15]
reported_endpoint: IC50
comparison_operator: =
result_value: 380
//
molecule: NCCOCCNC(=O)[C@@H]1CCNC(=O)/C=C/C(=O)N2CCC[C@](Cc3ccccc3)(C2)C(=O)N[C@@H](Cc2ccc(C(=O)c3ccccc3)cc2)C(=O)NCc2ccccc2CC(=O)N1 [Compound B1]
reported_endpoint: IC50
comparison_operator: =
result_value: 79
//
molecule: C[N+]1=C(C=CC=CC=C2N(CCCCCC(=O)NCCNC(=O)C3CCNC(=O)C=CC(=O)N4CCCC(Cc5ccccc5)(C4)C(=O)NC(Cc4ccc(-c5ccc(C(CC(=O)O)CC(=O)O)cc5)cc4)C(=O)NCc4ccccc4CC(=O)N3)c3ccccc3C2(C)C)C(C)(C)c2ccccc21 (stereo not shown) [*B53-Cy5]
reported_endpoint: IC50
comparison_operator: >
result_value: 10000

###

Biological target: CypH (Homo sapiens)
Construct: PPIH (UniProtKB Entry O43447: residues 1–177); His6 with TEV site (2BT vector leader) (N); made in house; host or cells: E. coli BL21(DE3)
Test: Chymotrypsin coupled prolyl-isomerase assay
Format: biochemical
Conditions: wild-type CypH; read-out: Wild-Type Cyclophilin Prolyl Isomerase Inhibition IC50 Values, CypH
reported_endpoint: IC50

compound: NCCOCCNC(=O)[C@@H]1CCNC(=O)/C=C/C(=O)N2CCC[C@](Cc3ccccc3)(C2)C(=O)N[C@@H](Cc2ccc(-c3ccc(C(=O)O)cc3)cc2)C(=O)NCc2ccccc2CC(=O)N1
result_value: > 100 µM

compound: C[N+]1=C(C=CC=CC=C2N(CCCCCC(=O)NCCNC(=O)C3CCNC(=O)C=CC(=O)N4CCCC(Cc5ccccc5)(C4)C(=O)NC(Cc4ccc(-c5ccc(C(CC(=O)O)CC(=O)O)cc5)cc4)C(=O)NCc4ccccc4CC(=O)N3)c3ccccc3C2(C)C)C(C)(C)c2ccccc21 (stereo not shown) [*B53-Cy5]
result_value: > 10 µM

compound: NCCOCCNC(=O)[C@@H]1CCNC(=O)/C=C/C(=O)N2CCC[C@](Cc3ccccc3)(C2)C(=O)N[C@@H](Cc2ccc(-c3ccc(C(CC(=O)O)CC(=O)O)cc3)cc2)C(=O)NCc2ccccc2CC(=O)N1
result_value: > 50 µM

compound: NC(=O)C1CCNC(=O)C=CC(=O)N2CCCC(Cc3ccccc3)(C2)C(=O)NC(Cc2ccc(-c3ccc(C=O)c(B(O)O)c3)cc2)C(=O)NCc2ccccc2CC(=O)N1 (stereo not shown)
result_value: > 50 µM
